Endpoint: melting point

>  <Compound>
O=C(N[C@H](Cc1ccc(C(F)(F)F)cc1)[C@@H](O)c1ccc(F)cc1)c1ccc(F)cc1 (racemic) [Example 55]

>  <Endpoint>
melting point

>  <Recorded value>
202 to 203 °C

$$$$
>  <Compound>
O=C(N[C@H](Cc1cccc(OCC(F)(F)C(F)F)c1)[C@@H](O)c1ccc(F)cc1)c1ccc(F)c2ccccc12 (racemic) [Example 172]

>  <Endpoint>
melting point

>  <Recorded value>
160 to 161 °C

$$$$
>  <Compound>
O=C(N[C@H](Cc1ccc(C(F)(F)F)cc1)[C@@H](O)c1ccc(Cl)cc1)c1ccc(F)c2ccccc12 (racemic) [Example 194]

>  <Endpoint>
melting point

>  <Recorded value>
203 to 204 °C

$$$$
>  <Compound>
O=C(N[C@H](Cc1ccc(C(F)(F)F)cc1)[C@@H](O)c1cccc2ccccc12)c1cccc2ccccc12 (racemic) [Example 185]

>  <Endpoint>
melting point

>  <Recorded value>
217 to 218 °C

$$$$
>  <Compound>
O=C(N[C@H](Cc1ccc(C(F)(F)F)cc1)[C@@H](O)c1ccc(F)cc1)c1cc(Cl)cc2ccccc12 (racemic) [Example 76]

>  <Endpoint>
melting point

>  <Recorded value>
220 to 221 °C

$$$$
>  <Compound>
O=C(N[C@H](Cc1cccc(O)c1)[C@@H](O)c1ccc(F)cc1)c1ccc(F)c2ccccc12 (racemic) [Example 286]

>  <Endpoint>
melting point

>  <Recorded value>
179 to 180 °C

$$$$

###

List of melting point values.

>  <Compound>
O=S(=O)(N[C@H](Cc1ccc(C(F)(F)F)cc1)[C@@H](O)c1ccc(F)cc1)c1cccc2ccccc12 (racemic)

>  <melting point>
176 to 177 °C

$$$$
>  <Compound>
CC(C)C(F)(F)Cc1ccc(C[C@@H](NC(=O)c2ccc(F)c3ccccc23)[C@@H](O)c2cccc(Cl)c2)cc1 (racemic)

>  <melting point>
181 to 182 °C

$$$$
>  <Compound>
CC(C)(C)OC(=O)N[C@H](Cc1cccc(OC(F)(F)C(F)F)c1)[C@@H](O)c1ccnc(F)c1 (racemic)

>  <melting point>
143 to 144 °C

$$$$
>  <Compound>
O=C(NC(Cc1ccc(C(F)(F)F)cc1)C(O)c1ccc(F)cc1)c1ccc2ccccc2c1 (racemic)

>  <melting point>
148 to 150 °C

$$$$

###

>  <Molecule>
CC(C)(C)COC(=O)N[C@H](Cc1ccc(C(F)(F)F)cc1)[C@@H](O)c1ccc(F)cc1 (racemic) [Example 116]

>  <melting point>
112 to 113 °C

$$$$
>  <Molecule>
O=C(N[C@H](Cc1ccc(C(F)(F)F)cc1)[C@@H](O)c1ccc(F)cc1)c1ccc(Oc2ccc(Cl)cc2)cc1 (racemic) [Example 90]

>  <melting point>
188 to 189 °C

$$$$
>  <Molecule>
COc1ccc(C[C@@H](NC(=O)c2cccc3ccccc23)[C@@H](O)c2ccc(F)cc2)cc1 (racemic) [Example 148]

>  <melting point>
198 to 199 °C

$$$$
>  <Molecule>
O=C(N[C@H](Cc1ccc(C(F)(F)F)cc1)[C@@H](O)c1ccc(F)cc1)c1cccc2c([N+](=O)[O-])cccc12 (racemic) [Example 40]

>  <melting point>
211 to 214 °C

$$$$
>  <Molecule>
CCCCc1ccc(C(=O)N[C@H](Cc2ccc(C(F)(F)F)cc2)[C@@H](O)c2ccc(F)cc2)cc1 (racemic) [Example 79]

>  <melting point>
171 to 172 °C

$$$$
>  <Molecule>
O=Cc1ccccc1-c1ccc([C@H](O)[C@@H](Cc2cccc(OC(F)(F)C(F)F)c2)NC(=O)c2cccc3c2C=CCCC3)cc1 (racemic) [Example 301]

>  <melting point>
195 to 196 °C

$$$$
>  <Molecule>
O=C(N[C@H](Cc1cccc(OC(F)(F)C(F)F)c1)[C@@H](O)c1cccc(Cl)c1)c1cccc2c1C=CCCC2 (racemic) [Example 237]

>  <melting point>
160 to 161 °C

$$$$
>  <Molecule>
O=C(N[C@H](Cc1ccc(C(F)(F)F)cc1)[C@@H](O)c1ccc(F)cc1)c1cccc2c1C(=O)c1ccccc1-2 (racemic) [Example 85]

>  <melting point>
185 to 186 °C

$$$$
>  <Molecule>
O=C(N[C@H](Cc1ccc(C(F)(F)F)cc1)[C@@H](O)c1ccc(F)cc1)c1cccc2c1-c1ccccc1C2=O (racemic) [Example 61]

>  <melting point>
231 to 232 °C

$$$$
>  <Molecule>
CC(C)(C)OC(=O)N[C@H](Cc1cccc(OC(F)(F)C(F)F)c1)[C@@H](O)c1ccc(F)nc1 (racemic) [Example 223]

>  <melting point>
128 to 129 °C

$$$$
>  <Molecule>
O=C(N[C@H](Cc1ccc(C(F)(F)F)cc1)[C@@H](O)c1ccc(F)cc1)c1ccc2ccccc2c1 (racemic) [Example 63]

>  <melting point>
174 to 175 °C

$$$$
>  <Molecule>
O=C(N[C@H](Cc1cccc(OC(F)(F)C(F)F)c1)[C@@H](O)c1ccc(F)cc1)c1cccc2c1C=CCC2 (racemic) [Example 123]

>  <melting point>
165 to 166 °C

$$$$
>  <Molecule>
O=C(N[C@H](Cc1ccc(C(F)(F)F)cc1)[C@@H](O)c1ccc(F)cc1)c1cccc2c(F)cccc12 (racemic) [Example 32]

>  <melting point>
222 to 224 °C

$$$$
>  <Molecule>
O=C(NC(Cc1ccc(C(F)(F)F)cc1)C(O)c1ccc(F)cc1)C12CC3CC(CC(C3)C1)C2 (racemic) [Example 15]

>  <melting point>
169 to 170 °C

$$$$
>  <Molecule>
O=C(N[C@H](Cc1cccc(OC(F)(F)C(F)F)c1)[C@@H](O)c1ccc(Cl)s1)c1cccc2c1C=CCCC2 (racemic) [Example 289]

>  <melting point>
177 to 178 °C

$$$$
>  <Molecule>
O=C(N[C@H](Cc1cccc(OC(F)(F)C(F)F)c1)[C@@H](O)c1ccc(F)cc1)c1cccc2c(Cl)cccc12 (racemic) [Example 333]

>  <melting point>
174 to 175 °C

$$$$
>  <Molecule>
COc1ccccc1-c1ccc([C@H](O)[C@@H](Cc2cccc(OC(F)(F)C(F)F)c2)NC(=O)c2cccc3c2C=CCCC3)cc1 (racemic) [Example 296]

>  <melting point>
148 to 150 °C

$$$$
>  <Molecule>
CC(C)(C)OC(=O)N[C@H](Cc1cc(OC(F)(F)C(F)F)no1)[C@@H](O)c1ccc(F)cc1 (racemic) [Example 319]

>  <melting point>
114 to 115 °C

$$$$
>  <Molecule>
O=C(N[C@H](Cc1cccc(OC(F)(F)C(F)F)c1)[C@@H](O)c1ccc(Oc2cccnc2)cc1)c1cccc2c1C=CCCC2 (racemic) [Example 261]

>  <melting point>
133 to 134 °C

$$$$
>  <Molecule>
CC(C)(C)C(F)(F)c1ccc(C[C@@H](NC(=O)c2ccc(F)c3ccccc23)[C@@H](O)c2cccc(Cl)c2)cc1 (racemic) [Example 379]

>  <melting point>
104 to 106 °C

$$$$
>  <Molecule>
CC(C)C(F)(F)Cc1ccc(C[C@@H](NC(=O)c2cccc3c(Cl)cccc23)[C@@H](O)c2cccc(Cl)c2)cc1 (racemic) [Example 354]

>  <melting point>
170 to 171 °C

$$$$
>  <Molecule>
O=C(N[C@H](Cc1ccc(C(F)(F)F)cc1)[C@@H](O)c1ccc(F)cc1)c1ccccc1 (racemic) [Example 68]

>  <melting point>
193 to 194 °C

$$$$
>  <Molecule>
CC(C)(C)OC(=O)N[C@H](Cc1cnc(C(F)(F)F)s1)[C@@H](O)c1ccc(F)cc1 (racemic) [Example 168]

>  <melting point>
137 to 138 °C

$$$$
>  <Molecule>
O=C(N[C@H](Cc1ccc(C(F)(F)F)cc1)[C@@H](O)c1cccc(F)c1)c1cccc2c1C=CCCC2 (racemic) [Example 177]

>  <melting point>
151 to 152 °C

$$$$
>  <Molecule>
O=C(O)c1ccc(COc2ccc([C@@H](O)[C@H](Cc3cccc(OC(F)(F)C(F)F)c3)NC(=O)c3cccc4c3C=CCCC4)cc2)cc1 (racemic) [Example 250]

>  <melting point>
190 to 191 °C

$$$$

###

>  <Molecule>
CC(=O)O[C@H](c1ccc(F)cc1)[C@H](Cc1cccc(OC(F)(F)C(F)F)c1)NC(=O)c1cccc2c1C=CCCC2 (racemic)

>  <melting point>
176 to 177 °C

$$$$
>  <Molecule>
CC(C)NC(=O)c1ccc([C@H](O)[C@@H](Cc2cccc(OC(F)(F)C(F)F)c2)NC(=O)c2cccc3c2C=CCCC3)cc1 (racemic)

>  <melting point>
215 to 217 °C

$$$$
>  <Molecule>
O=C(O)c1ccc([C@@H](O)[C@H](Cc2cccc(OC(F)(F)C(F)F)c2)NC(=O)c2cccc3c2C=CCCC3)cc1 (racemic)

>  <melting point>
210 to 211 °C

$$$$
>  <Molecule>
CC(C)(C)COc1cccc(C[C@@H](NC(=O)c2cccc3c(Cl)cccc23)[C@@H](O)c2cccc(Cl)c2)c1 (racemic)

>  <melting point>
142 to 143 °C

$$$$
>  <Molecule>
O=C(N[C@H](Cc1ccc(C(F)(F)F)cc1)[C@@H](O)c1ccc(F)cc1)c1cccc2cccc(Br)c12 (racemic)

>  <melting point>
191 to 192 °C

$$$$
>  <Molecule>
O=C(Cc1cccc2ccccc12)N[C@H](Cc1ccc(C(F)(F)F)cc1)[C@@H](O)c1ccc(F)cc1 (racemic)

>  <melting point>
186 to 187 °C

$$$$
